Biological target: T1, in-line fusion protein of human IL-36R extracellular domain and IL1RAcP extracellular domain expressed with … (human; mouse, UniProt Q9HB29 20-337; Q9NPH3 21-359, limits assumed)
T1 construct: not shown: mouse IgG2a Fc
T1 sequence (looked up): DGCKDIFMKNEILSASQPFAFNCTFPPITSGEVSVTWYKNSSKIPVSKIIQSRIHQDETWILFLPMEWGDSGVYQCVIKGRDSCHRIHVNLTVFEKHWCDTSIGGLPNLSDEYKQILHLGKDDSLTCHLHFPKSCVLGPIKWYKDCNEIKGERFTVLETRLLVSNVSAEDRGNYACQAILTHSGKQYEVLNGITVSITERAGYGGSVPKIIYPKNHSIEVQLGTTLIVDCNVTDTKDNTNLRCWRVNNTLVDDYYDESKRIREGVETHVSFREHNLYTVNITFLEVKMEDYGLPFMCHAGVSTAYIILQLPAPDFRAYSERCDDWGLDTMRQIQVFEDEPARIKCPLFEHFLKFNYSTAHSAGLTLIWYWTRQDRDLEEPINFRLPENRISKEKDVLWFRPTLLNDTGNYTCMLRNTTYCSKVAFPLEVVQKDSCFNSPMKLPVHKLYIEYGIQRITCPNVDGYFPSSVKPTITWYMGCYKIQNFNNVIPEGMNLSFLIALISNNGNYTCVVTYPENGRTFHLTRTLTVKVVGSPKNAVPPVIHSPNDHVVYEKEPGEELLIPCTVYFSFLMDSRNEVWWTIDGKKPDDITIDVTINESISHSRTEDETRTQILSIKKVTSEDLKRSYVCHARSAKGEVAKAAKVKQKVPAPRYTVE
Assay: SPR Biacore 4000, mAb captured on anti-hFc, 25C
Overview of reported koff across a group of binders:
Number only, in s⁻¹; omit the unit.

Observe how each entry below is paired with its result.
>  <binder>
H4H14699P2 (antibody, human IgG4 S228P, kappa, V domains shown, Fully human anti-IL-36R antibody) VH: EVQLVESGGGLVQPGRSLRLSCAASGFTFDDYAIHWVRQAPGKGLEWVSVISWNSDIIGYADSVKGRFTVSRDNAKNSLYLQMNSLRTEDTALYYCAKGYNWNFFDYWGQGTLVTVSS VL: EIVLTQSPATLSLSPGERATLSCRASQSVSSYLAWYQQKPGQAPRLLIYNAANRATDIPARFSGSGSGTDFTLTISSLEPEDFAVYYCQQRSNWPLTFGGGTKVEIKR

>  <koff [s⁻¹]>
0.000228

$$$$
>  <binder>
H4H14700P2 (antibody, human IgG4 S228P, kappa, V domains shown, Fully human anti-IL-36R antibody) VH: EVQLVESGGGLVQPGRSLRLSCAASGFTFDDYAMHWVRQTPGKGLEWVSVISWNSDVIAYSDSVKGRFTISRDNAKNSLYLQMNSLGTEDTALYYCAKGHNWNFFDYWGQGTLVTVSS VL: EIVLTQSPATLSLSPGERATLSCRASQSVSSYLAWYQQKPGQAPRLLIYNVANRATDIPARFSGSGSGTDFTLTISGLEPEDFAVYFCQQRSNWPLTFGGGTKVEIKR

>  <koff [s⁻¹]>
0.000125

$$$$

Now for another entry.
# input Using the record for H4H14728P (antibody, human IgG4 S228P, kappa, V domains shown, Fully human anti-IL-36R antibody) VH: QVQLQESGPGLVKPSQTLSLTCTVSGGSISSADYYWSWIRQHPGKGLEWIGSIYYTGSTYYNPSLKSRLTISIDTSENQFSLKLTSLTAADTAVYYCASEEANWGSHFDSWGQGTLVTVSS VL: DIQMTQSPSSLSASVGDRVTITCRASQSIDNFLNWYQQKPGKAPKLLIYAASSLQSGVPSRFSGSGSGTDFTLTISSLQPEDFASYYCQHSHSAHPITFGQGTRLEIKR , report its koff.
# output 0.000565

The reported numbers originate from patent US20200017592A1.
